# Test system: P388 leukemia ip, CD2F1 mice, survival T/C
# assay-protocol: NCI In Vivo Anticancer Drug Screen. Data for tumor model P388 Leukemia (intraperitoneal) in CD2F1 (CDF1) mice
# assay-context: endpoint: median survival time; dose: 60.0 mg/kg/injection; schedule: Q01DX005 (ip); vehicle: saline with Tween-80; higher = longer survival
Inconclusive results and toxic doses are left out.

{"molecule": "CC(C(=O)O)c1cn(Cc2ccccc2)c2ccccc12 (stereo unspecified)", "T/C": "100 % of control"}
{"molecule": "N#CC1=CCc2ccccc2N1C(=O)Oc1ccccc1", "T/C": "97 % of control"}
{"molecule": "O=C(CCN1C(=O)c2ccccc2C1=O)Nc1c(I)cc(I)c(C(=O)O)c1I", "T/C": "104 % of control"}
{"molecule": "C/C(CC(C)C)=N\\NC(=O)CNC(=O)c1ccccc1", "T/C": "100 % of control"}
{"molecule": "COc1ccc(/C=N/N2CN(C(C)C(=O)O)P(N(CCO)CCO)N=C2N)cc1OC (stereo unspecified)", "T/C": "104 % of control"}
{"molecule": "OCCC(N1CCOCC1)C(O)(c1ccccc1)c1ccccc1 (stereo unspecified)", "T/C": "93 % of control"}
{"molecule": "CC1(C)CCc2c(cc3c(c2O)CCC(C)(C)O3)O1", "T/C": "109 % of control"}
{"molecule": "O=C(NC(Cc1ccc(O)cc1)C(=O)O)C(=O)c1c[nH]c2ccc([N+](=O)[O-])cc12 (stereo unspecified)", "T/C": "97 % of control"}
{"molecule": "NNc1ncnc2cccc(Cl)c12", "T/C": "94 % of control"}
{"molecule": "CCC12CCCN3CCc4c(n(c5ccc(Br)cc45)C(=O)/C(=N\\O)C1)C32 (stereo unspecified)", "T/C": "101 % of control"}
{"molecule": "Nc1[nH]c(=O)ncc1-c1ccc(Cl)cc1", "T/C": "97 % of control"}
{"molecule": "Cc1cc(C)c2c(=O)n(-c3ccccc3C)c(=S)n(-c3ccccc3C)c2n1", "T/C": "100 % of control"}
{"molecule": "Nc1ncnc(N)c1NC(=O)c1ccc(OCc2ccccc2)cc1", "T/C": "105 % of control"}
{"molecule": "O=C(Nc1cccc2c1C(O)c1ccccc1-2)C(Cl)Cl (stereo unspecified)", "T/C": "97 % of control"}
{"molecule": "COC(=O)c1nc(N)nc(C(=O)OC)c1C(=O)c1ccc(N2CCN(c3ccc(C(=O)c4c(C(=O)OC)nc(N)nc4C(=O)OC)cc3)CC2)cc1", "T/C": "98 % of control"}
{"molecule": "CC(Cl)(C=O)c1ccccc1 (stereo unspecified)", "T/C": "100 % of control"}
{"molecule": "CCCCC1SCC(=O)N1c1nncs1 (stereo unspecified)", "T/C": "104 % of control"}
{"molecule": "N#C/C(=C\\Nc1ccccn1)C(=O)c1ccccc1", "T/C": "91 % of control"}
{"molecule": "Cc1cnc(NS(=O)(=O)c2ccc(N)cc2)nc1-c1ccccc1O", "T/C": "100 % of control"}
{"molecule": "NNC(=O)C1C2c3ccccc3C(c3ccccc32)C1C(=O)NN (stereo unspecified)", "T/C": "99 % of control"}
{"molecule": "O=[N+]([O-])c1cc(CNCCO)c(O)c2ncccc12", "T/C": "91 % of control"}
{"molecule": "O=C1C(=Cc2cccnc2)C(=O)c2ccccc21", "T/C": "106 % of control"}
{"molecule": "CSC(SC)(C(=O)O)c1cc(C)no1", "T/C": "107 % of control"}
{"molecule": "Cc1c(Cl)cccc1NC(=O)/C(Cl)=C1/Sc2ccccc2NC1=O", "T/C": "96 % of control"}
{"molecule": "COCOc1c(OC)c(C2(O)C(=O)N(C)c3ccccc32)c(OCOC)c(OC)c1C1(O)C(=O)N(C)c2ccccc21 (stereo unspecified)", "T/C": "100 % of control"}
{"molecule": "CC(=O)Oc1cc2c(cc1OC(C)=O)OCC(c1ccc(C)cc1)C2 (stereo unspecified)", "T/C": "105 % of control"}
{"molecule": "CCOC(=O)c1c(C)csc1NC(=O)CSCC(=O)OC", "T/C": "99 % of control"}
{"molecule": "Oc1cc2c(cc1C(Nc1ncccn1)c1ccc(F)cc1)OCO2 (stereo unspecified)", "T/C": "99 % of control"}
{"molecule": "O=[N+]([O-])c1cc(I)c(O)c(/C=N/NS(=O)(=O)c2ccc(F)cc2)c1", "T/C": "104 % of control"}
{"molecule": "CN1C(c2ccccc2)=C(C#N)C(=O)CC(c2ccccc2)N1C (stereo unspecified)", "T/C": "120 % of control"}
{"molecule": "COC(=O)c1nn2c(=O)n(C(C)=O)c3ccccc3c2c1C(=O)OC", "T/C": "108 % of control"}
{"molecule": "CCn1c(=O)n(Cc2ccccc2)c(=O)c2ccccc21", "T/C": "93 % of control"}
{"molecule": "C(=N\\N=C1c2ccccc2-c2ccccc21)/c1ccc2ccc3cccc4ccc1c2c34", "T/C": "86 % of control"}
{"molecule": "CN(C)B(N(C)C)N(C)C", "T/C": "101 % of control"}
{"molecule": "Cc1cc2c(cc1C)NS(=O)(=O)N2", "T/C": "102 % of control"}
{"molecule": "C=CCOc1cc2c(cc1C(C)(C)c1ccc(OC)cc1)OCO2", "T/C": "118 % of control"}
{"molecule": "CN(C)c1c2c(oc(=O)c1Cl)-c1ccccc1SCC2", "T/C": "101 % of control"}
{"molecule": "COCCCn1cnn2c(=O)c3ccccc3nc2c1=O", "T/C": "103 % of control"}
{"molecule": "CC(=O)Nc1ccccc1C(=O)C(=O)Nc1ccccc1C(=O)NN", "T/C": "106 % of control"}
{"molecule": "COc1ccc(Cl)cc1NC(=O)c1ccco1", "T/C": "96 % of control"}
{"molecule": "COc1nc(NC2OCC(O)C(O)C2O)c(Cl)c(=O)n1C (stereo unspecified)", "T/C": "93 % of control"}
{"molecule": "O=S(=O)(Nc1ccn(-c2ccccc2)n1)c1ccc(NCc2c3ccccc3nc3cc(Cl)ccc23)cc1", "T/C": "99 % of control"}
{"molecule": "COC(=O)C(=O)c1c(-c2ccc(O)c(OC)c2)[nH]c2[nH]n(-c3ccccc3)c(=O)c2c1=O", "T/C": "100 % of control"}
{"molecule": "O=c1c(Cc2ccccc2)coc2ccccc12", "T/C": "106 % of control"}
{"molecule": "CC(C)c1cccc(C(C)C)c1NC(=O)OCCN(C)C", "T/C": "100 % of control"}
{"molecule": "CC1=N[C@@H](C(=O)NCC(N)=O)Cc2c1[nH]c1ccccc21", "T/C": "98 % of control"}
